target: OsWRKY34 (Oryza sativa, UniProt Q0JBA9 1-250); experiment: protein-binding microarray (RPBM); PBS, 2% BSA, 51.3 ng/ul salmon testes DNA, 50 uM zinc acetate, 200 nM TF, 25 C, 1 h; high values mean tight binding; settings: protein: recombinant; tags: N-terminal polyhistidine and DsRed monomer fusion (pET32a); label: CyDye5-dUTP incorporated in the synthesized complementary strand; 3' TTTTT single-stranded linker to array surface; dsDNA, one strand shown
Sequence (Q0JBA9 entry or part of it): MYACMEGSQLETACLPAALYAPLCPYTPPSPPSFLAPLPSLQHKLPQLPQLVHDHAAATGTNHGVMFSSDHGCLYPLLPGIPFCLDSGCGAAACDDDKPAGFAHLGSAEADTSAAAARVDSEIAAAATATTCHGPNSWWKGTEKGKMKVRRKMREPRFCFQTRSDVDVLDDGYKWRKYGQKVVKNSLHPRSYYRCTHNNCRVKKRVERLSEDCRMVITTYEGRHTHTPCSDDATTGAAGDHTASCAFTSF
Over roughly 68,000 sequences, “fluorescence intensity (a.u.)” has its median near 9,100; the highest 2% begin near 16,000. Many of the other results were omitted from the sample, so the highest values are more common in it than they were.
Property: binding signal

# Sequence string, binding signal
records = [
    ("GTCATATGGCACCATGCTTGCTCTCCACTCTTCAATCAGTCGGAGTCACCTAGTGCAG", "9490 fluorescence intensity (a.u.)"),
    ("TCATTTTGACTTTTTTTAGTCAAACTCTTTTAATTTTAATCGGAGTCACCTAGTGCAG", "19600 fluorescence intensity (a.u.)"),
]

Value of binding signal reported for the sequence AAGGCTTATCACTTCGATTTTTATTTTAGTCCTTGTACTTCGGAGTCACCTAGTGCAG is 8460 fluorescence intensity (a.u.)

Value of binding signal reported for the sequence GGTTTGGCTTGGCTTGGCGGCTGGTTCTGCTGAGGCTGACCGGAGTCACCTAGTGCAG is 11900 fluorescence intensity (a.u.)

Value of binding signal reported for the sequence TCACCCTTCACCTGCATGATCCTCTCTTTTTCAATCCCTCCGGAGTCACCTAGTGCAG is 9340 fluorescence intensity (a.u.)

Value of binding signal reported for the sequence AGAGGAGGAGAGTGGTGGTGGTGCGAGAGGGAGGGAGATGCGGAGTCACCTAGTGCAG is 9230 fluorescence intensity (a.u.)

Value of binding signal reported for the sequence CGCACCGTCGACTAGTCCCGTCCCGTCGCGCCGTTGCCTTCGGAGTCACCTAGTGCAG is 8590 fluorescence intensity (a.u.)

Value of binding signal reported for the sequence TTCTGAACCGTGTTAAAATGCTACAAAATTTTCCCTTTTTCGGAGTCACCTAGTGCAG is 8570 fluorescence intensity (a.u.)

Value of binding signal reported for the sequence GAGAGCTTTGCGGCGGGCATGCGGGTGGGGATTCACCGCGCGGAGTCACCTAGTGCAG is 10600 fluorescence intensity (a.u.)

Value of binding signal reported for the sequence CTTCTGCTGCTTCTCTCTCTCTCTCTGTGTCTAGTCTACCCGGAGTCACCTAGTGCAG is 9420 fluorescence intensity (a.u.)

Value of binding signal reported for the sequence GTTAGCTTCTACATTTCTCGTTTCTGCTGAAAATAGTGGACGGAGTCACCTAGTGCAG is 9540 fluorescence intensity (a.u.)

Value of binding signal reported for the sequence GGGGTCGGGGTGGGAGAGGGAGGCTACACTACAGCAGCAGCGGAGTCACCTAGTGCAG is 11100 fluorescence intensity (a.u.)

Value of binding signal reported for the sequence AGAGATGGTAGTGGTAAAGCGGAGGAGGGGTGGGGTGTTGCGGAGTCACCTAGTGCAG is 16700 fluorescence intensity (a.u.)

Value of binding signal reported for the sequence CTGCGGCCCGGCGGGAGTGGGAGGGGCGGCGGGCCGGACCCGGAGTCACCTAGTGCAG is 9720 fluorescence intensity (a.u.)

Value of binding signal reported for the sequence ATCCTATATTTGTTGCAGTTCATTCATTTCATCACCAGTTCGGAGTCACCTAGTGCAG is 8840 fluorescence intensity (a.u.)

Value of binding signal reported for the sequence AGAGGGATGGGTGTGGGCAGCGGTGGGCGGTAAGGCACCACGGAGTCACCTAGTGCAG is 9360 fluorescence intensity (a.u.)

Value of binding signal reported for the sequence GGAGAAAAAGGGGAGGGAGGGAGATGATGACGTGTAGGGGCGGAGTCACCTAGTGCAG is 8550 fluorescence intensity (a.u.)

Value of binding signal reported for the sequence AGGAGCCAGACTTAGTTGGTGTAAGCCATTTACTAGTTGACGGAGTCACCTAGTGCAG is 22800 fluorescence intensity (a.u.)

Value of binding signal reported for the sequence ATTTTGGGACAGAGGTAGCAGTGAACTACACGTACCTTGTCGGAGTCACCTAGTGCAG is 21500 fluorescence intensity (a.u.)

Value of binding signal reported for the sequence CCCGACCAAACACTACGAACTCTTCTACCTTCTTTGTTTCCGGAGTCACCTAGTGCAG is 12600 fluorescence intensity (a.u.)
